Test system: Saccharomyces cerevisiae
procedure.summary: protein stability index of tFT-peptide fusion (C-terminal peptide) (PSI (0-1 scale)); higher = more stable (slower turnover)
assay.conditions: genetic background: wild type; temperature: 30 C
measurement.name: protein stability index
No unit in the answer, only the number.

INSERT INTO measurements (monomer_sequence, numeric_value) VALUES
  ('VIFFEFFLSFGE', 0.413),
  ('GGGGGRAQEVQG', 0.717),
  ('VPLIFSTFVSIS', 0.54),
  ('DVFVFHVLKKYP', 0.654),
  ('HFPFYPSAPPPF', 0.713),
  ('REAGGSQVKRRL', 0.671),
  ('RLLGRPFRHERG', 0.698),
  ('GASCRDCVTRGS', 0.745);

[ask] Fill in the blank: the reported protein stability index of GLLSLPPRLPFL is ____.
[reply] 0.672

[ask] Fill in the blank: the reported protein stability index of SRSETIQTGIGW is ____.
[reply] 0.706

[ask] Fill in the blank: the reported protein stability index of KKKKNKKEEHVE is ____.
[reply] 0.715

---

Tested on: Saccharomyces cerevisiae
procedure.summary: protein stability index of tFT-peptide fusion (C-terminal peptide) (PSI (0-1 scale)); higher = more stable (slower turnover)
assay.conditions: genetic background: wild type; temperature: 37 C
measurement.name: protein stability index
No unit in the answer, only the number.

INSERT INTO measurements (monomer_sequence, measurement_name, numeric_value) VALUES
  ('GIVYFDQWISVS', 'protein stability index', 0.544);

[ask] Query protein stability index on Saccharomyces cerevisiae for PCLPLTPMWTLF
[reply] 0.611

[ask] Query protein stability index on Saccharomyces cerevisiae for ACGAGFIILLGL
[reply] 0.633

[ask] Query protein stability index on Saccharomyces cerevisiae for VWWWGAVGWLMV
[reply] 0.547

[ask] Query protein stability index on Saccharomyces cerevisiae for SLRSRSLRCRLS
[reply] 0.489

[ask] Query protein stability index on Saccharomyces cerevisiae for FCCLIGYIWYGW
[reply] 0.514

---

The following sequences are shown together with reported protein stability index values.
System: Saccharomyces cerevisiae
procedure.summary: protein stability index of tFT-peptide fusion (C-terminal peptide) (PSI (0-1 scale)); higher = more stable (slower turnover)
assay.conditions: genetic background: wild type; temperature: 30 C
No unit in the answer, only the number.

Worked cases, protein stability index given:
INSERT INTO measurements (monomer_sequence, numeric_value) VALUES
  ('LSTWDARTPILD [GPI2 C-terminal 12 aa]', 0.703),
  ('GFLGIRWGPRKD [TIM21 C-terminal 12 aa]', 0.686),
  ('KLAKPAPTSKLD [TDA4 C-terminal 12 aa]', 0.692),
  ('EKKKNPYWYYQW [GEP3 C-terminal 12 aa]', 0.673),
  ('QSATKNQQNQGK [SSQ1 C-terminal 12 aa]', 0.656),
  ('VNNFKMFSNSSV [YIL115W-A C-terminal 12 aa]', 0.765),
  ('DNPETKNGRENK [ECM10 C-terminal 12 aa]', 0.643),
  ('GLFPSNYVSLGN [ABP1 C-terminal 12 aa]', 0.721);

[ask] Query protein stability index on Saccharomyces cerevisiae for TPLLLGNKGKPQ [YBL094C C-terminal 12 aa]
[reply] 0.696

[ask] Query protein stability index on Saccharomyces cerevisiae for TTNANVNNSSLS [FKH1 C-terminal 12 aa]
[reply] 0.662

---

The following sequences are shown together with reported protein stability index values.
Test system: Saccharomyces cerevisiae
procedure.summary: protein stability index of tFT-peptide fusion (C-terminal peptide) (PSI (0-1 scale)); higher = more stable (slower turnover)
assay.conditions: genetic background: wild type; temperature: 30 C

INSERT INTO assay_data (monomer_sequence, target_of_assay, measurement_name, result) VALUES
  ('KCGLQRFREAIY', 'Saccharomyces cerevisiae', 'protein stability index', 0.61);

[ask] Fill in the blank: the reported protein stability index of ADLTTPHPDPRP is ____.
[reply] 0.674

[ask] Fill in the blank: the reported protein stability index of GLSTPPSPALLR is ____.
[reply] 0.748

[ask] Fill in the blank: the reported protein stability index of DCYSKLQSRKCG is ____.
[reply] 0.682

[ask] Fill in the blank: the reported protein stability index of GQVTAHFRLARV is ____.
[reply] 0.697

---

The following sequences are shown together with reported protein stability index values.
System: Saccharomyces cerevisiae
procedure.summary: protein stability index of tFT-peptide fusion in wild type (PSI (0-1 scale)); higher = more stable (slower turnover)
assay.conditions: genetic background: wild type
No unit in the answer, only the number.

Worked cases, protein stability index given:
INSERT INTO measurements (monomer_sequence, numeric_value) VALUES
  ('CLVSLPILLFGR', 0.492),
  ('GLYMCSVGCGFR', 0.628),
  ('RLIKPLPVQFLN', 0.0432),
  ('RVTRLDAIYFNI', 0.572),
  ('LLYMCSVGCWFR', 0.348),
  ('PDKPNHLIKLLN', 0.199),
  ('LKILRQSMNHQN', 0.238),
  ('LTVYLSCVACIN', 0.0165),
  ('PSLAASFWFVVG', 0.658),
  ('LKILRQKINHQN', 0.23);

[ask] Fill in the blank: the reported protein stability index of AITLPMCGLLLR is ____.
[reply] 0.243

---

Tested on: Saccharomyces cerevisiae
procedure.summary: protein stability index of tFT-peptide fusion (C-terminal peptide) (PSI (0-1 scale)); higher = more stable (slower turnover)
assay.conditions: genetic background: wild type; temperature: 37 C
Think of 0.4 as a floor: if protein stability index stands on it or above, it is rule met; beneath it, rule not met.

Take a look at these entries with their results.
INSERT INTO results (monomer_sequence, target_of_assay, group) VALUES
  ('GRHRRIRYVKTS', 'Saccharomyces cerevisiae', 'rule not met'),
  ('VVLWTFLLEVSA', 'Saccharomyces cerevisiae', 'rule not met'),
  ('IFFYQLYVDRLC', 'Saccharomyces cerevisiae', 'rule not met'),
  ('SPCLSWTLVLVL', 'Saccharomyces cerevisiae', 'rule not met'),
  ('VTEGMKEVIKQI', 'Saccharomyces cerevisiae', 'rule met');

[ask] Decide: protein stability index of KVLLYWRHAQRQ >= 0.4?
[reply] rule met

[ask] Decide: protein stability index of APTMAIIVVHVR >= 0.4?
[reply] rule not met

[ask] Decide: protein stability index of GVAILFTFFRLL >= 0.4?
[reply] rule not met

[ask] Decide: protein stability index of GLACNPQLLRWT >= 0.4?
[reply] rule met

[ask] Decide: protein stability index of KIKQIKINNKIN >= 0.4?
[reply] rule not met

[ask] Decide: protein stability index of KIILMCYTLITL >= 0.4?
[reply] rule met

[ask] Decide: protein stability index of VVLWVVCWGCWK >= 0.4?
[reply] rule met

[ask] Decide: protein stability index of VRGLGFRWVWGW >= 0.4?
[reply] rule met

[ask] Decide: protein stability index of FKKIKGKIEKKN >= 0.4?
[reply] rule met

[ask] Decide: protein stability index of SELLVHVVFWLA >= 0.4?
[reply] rule not met

[ask] Decide: protein stability index of GGMGLWCCVSVG >= 0.4?
[reply] rule met

[ask] Decide: protein stability index of NCVDRFKGQKRM >= 0.4?
[reply] rule met

[ask] Decide: protein stability index of VVGILVLASWDL >= 0.4?
[reply] rule not met

[ask] Decide: protein stability index of FSFEGVLVPLLV >= 0.4?
[reply] rule not met

[ask] Decide: protein stability index of IYTLIINKSKAQ >= 0.4?
[reply] rule met

[ask] Decide: protein stability index of LPVSLWLVCSFF >= 0.4?
[reply] rule met

[ask] Decide: protein stability index of VICSLFRYIMRL >= 0.4?
[reply] rule not met

---

System: Saccharomyces cerevisiae
procedure.summary: protein stability index of tFT-peptide fusion (C-terminal peptide) (PSI (0-1 scale)); higher = more stable (slower turnover)
assay.conditions: genetic background: das1 deletion; temperature: 30 C
The following sequences are shown together with reported protein stability index values.

[ask] Fill in the blank: the reported protein stability index of WKNIHGVFVFVM is ____.
[reply] 0.389

[ask] Fill in the blank: the reported protein stability index of WVFYAVRWRTWN is ____.
[reply] 0.311

[ask] Fill in the blank: the reported protein stability index of FYIRFYVYSWLF is ____.
[reply] 0.304

[ask] Fill in the blank: the reported protein stability index of RLPSSNVRYWVS is ____.
[reply] 0.64

[ask] Fill in the blank: the reported protein stability index of LPSLPPPPPPPP is ____.
[reply] 0.673

[ask] Fill in the blank: the reported protein stability index of TLWWRQPFWGFG is ____.
[reply] 0.659

[ask] Fill in the blank: the reported protein stability index of RLPRILVLVCLF is ____.
[reply] 0.228

[ask] Fill in the blank: the reported protein stability index of LFLIFFSFLFLC is ____.
[reply] 0.206

[ask] Fill in the blank: the reported protein stability index of FYLSSCFLFLRF is ____.
[reply] 0.311
